Reported log10 IC50 values are given for each entry in this list.
# TARGET OF ASSAY: cIAP1 BIR3 (Homo sapiens, UniProt Q13490)
# Construct: covering amino acids 256 to 363; cIAP1 BIR3
# Sequence (Q13490 256-363): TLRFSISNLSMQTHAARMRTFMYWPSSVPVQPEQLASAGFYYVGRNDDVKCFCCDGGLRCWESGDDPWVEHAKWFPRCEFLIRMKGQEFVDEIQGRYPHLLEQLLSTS
# PROTOCOL: cIAP1 BIR3 binding assay (DELFIA), displacement of SMAC peptide
# CONDITION PARAMETERS: GST-fusion BIR3 domain (aa 256 to 363) 10 nM, SMAC peptide 10 nM; activity of the (S)-isomers
PROPERTY MEASURED: log10 IC50 (log10 of the value in nM)

In [3]: df
Out[3]:
                                    compound  property_measured  obs_value
 0  CNC(C)C(=O)Nc1ccc(-c2c(C)nc3ccccn23)c(C#Cc2ccc(-c3cccnc3)cc2)n1 (stereo not shown)         log10 IC50       0.00
 1  CNC(C)C(=O)Nc1ccc(-c2c(C)nc3ccccn23)c(C#Cc2ccc3c(c2)CC(=O)N3C)n1 (stereo not shown)         log10 IC50       0.00
 2  CNC(C)C(=O)Nc1ccc(-c2c(C)nc3ccccn23)c(C#Cc2ccc3ncsc3c2)n1 (stereo not shown)         log10 IC50       0.00
 3  CNC(C)C(=O)Nc1ccc(-c2c(C)nc(N3CCOCC3)nc2C)c(C#Cc2ccc3ncccc3c2)n1 (stereo not shown)         log10 IC50       0.00
 4  CNC(C)C(=O)Nc1ccc(-c2c(C)nc3cc(Cl)ccn23)c(C#Cc2ccc3ncccc3c2)n1 (stereo not shown)         log10 IC50       0.00
 5  CNC(C)C(=O)Nc1ccc(-c2c(C)nc3ccccn23)c(C#Cc2ccc(-c3cnco3)cc2)n1 (stereo not shown)         log10 IC50       0.00
 6  CNC(C)C(=O)Nc1ccc(-c2c(-c3ccncc3)nc3cc(C)ccn23)c(C#Cc2ccc3c(ccc(=O)n3C)c2)n1 (stereo not shown)         log10 IC50       0.00
 7  CC(N)C(=O)Nc1cccc(C#Cc2ccc3cc[nH]c3c2)n1 (stereo not shown)         log10 IC50       3.09
 8  CNC(C)C(=O)Nc1ccc(-c2c(-c3ccncc3)nc3cc(C)ccn23)c(C#Cc2ccc(F)c3ncccc23)n1 (stereo not shown)         log10 IC50       0.30
 9  CNC(C)C(=O)Nc1ccc(-c2cncc(Cl)c2)c(C#Cc2ccccc2)n1 (stereo not shown)         log10 IC50       1.36
10  CNC(C)C(=O)Nc1ccc(-c2cscc2C#N)c(C#Cc2ccccc2)n1 (stereo not shown)         log10 IC50       1.97
11  CC(N)C(=O)Nc1cccc(C#Cc2cccc(C(=O)N3CCOCC3)c2)n1 (stereo not shown)         log10 IC50       3.33
12  [2H]C([2H])([2H])NC(C)C(=O)Nc1ccc(-c2c(C)noc2C)c(C#Cc2ccccc2)n1 (stereo not shown)         log10 IC50       0.48
13  Cc1ccccc1-c1ccc(NC(=O)C(C)N)nc1C#Cc1ccccc1 (stereo not shown)         log10 IC50       2.24
14  CC(N)C(=O)Nc1ccc(-c2cncc(Oc3ccccc3)c2)c(C#Cc2ccccc2)n1 (stereo not shown)         log10 IC50       2.51
15  CNC(C)C(=O)Nc1ccc(-c2cnc(N3CCN(C)CC3)nc2)c(C#Cc2ccccc2)n1 (stereo not shown)         log10 IC50       1.34

---

# TARGET OF ASSAY: cIAP1 BIR3 (Homo sapiens, UniProt Q13490)
# Construct: covering amino acids 256 to 363; cIAP1 BIR3; made in house; host or cells: E. coli
# PROTOCOL: cIAP1 BIR3 binding assay (DELFIA), displacement of SMAC peptide
# CONDITION PARAMETERS: GST-fusion BIR3 domain (aa 256 to 363) 10 nM, SMAC peptide 10 nM; activity of the (S)-isomers
Reported IC50 values are given for each entry in this list.
PROPERTY MEASURED: IC50 (nM)

                                    compound                           target_of_assay  property_measured  obs_value
 0  CC(N)C(=O)Nc1cc2ccccc2c(C#Cc2ccccn2)n1 (stereo not drawn) [Example 206]  cIAP1 BIR3 (Homo sapiens, UniProt Q13490)               IC50        880
 1  CNC(C)C(=O)Nc1ccc(-c2ccc(C)nc2)c(C#Cc2ccccc2)n1 (stereo not drawn) [Example 147]  cIAP1 BIR3 (Homo sapiens, UniProt Q13490)               IC50         32
 2  CNC(C)C(=O)Nc1ccc(-c2c(C)nc3ccccn23)c(C#Cc2ccc3c(c2)CN(C)C3=O)n1 (stereo not drawn) [Example 31]  cIAP1 BIR3 (Homo sapiens, UniProt Q13490)               IC50          1
 3  CNC(C)C(=O)Nc1ccc(-c2cc(F)cc(C(=O)OC)c2)c(C#Cc2ccccc2)n1 (stereo not drawn) [Example 132]  cIAP1 BIR3 (Homo sapiens, UniProt Q13490)               IC50         97
 4  CNC(C)C(=O)Nc1ccc(-c2sc(C)nc2C)c(C#Cc2ccccc2)n1 (stereo not drawn) [Example 186]  cIAP1 BIR3 (Homo sapiens, UniProt Q13490)               IC50         16
 5  CNC(C)C(=O)Nc1ccc(-c2cncc(C(=O)OC)c2)c(C#Cc2cccc(C)c2)n1 (stereo not drawn) [Example 13]  cIAP1 BIR3 (Homo sapiens, UniProt Q13490)               IC50         12
 6  COC(=O)c1cccc(C#Cc2cccc(NC(=O)C(C)N)n2)c1 (stereo not drawn) [Example 223]  cIAP1 BIR3 (Homo sapiens, UniProt Q13490)               IC50       2620
 7  CNC(C)C(=O)Nc1ccc(-c2c(C)nc3ccccn23)c(C#Cc2ccc(-n3cncn3)cc2)n1 (stereo not drawn) [Example 37]  cIAP1 BIR3 (Homo sapiens, UniProt Q13490)               IC50          1
 8  CNC(C)C(=O)Nc1ccc(-c2cccc(NC(C)=O)c2)c(C#Cc2ccccc2)n1 (stereo not drawn) [Example 118]  cIAP1 BIR3 (Homo sapiens, UniProt Q13490)               IC50         92
 9  CNC(C)C(=O)Nc1ccc(-c2cncc(-c3ccccc3)c2)c(C#Cc2ccccc2)n1 (stereo not drawn) [Example 149]  cIAP1 BIR3 (Homo sapiens, UniProt Q13490)               IC50         80
10  CNC(C)C(=O)Nc1ccc(-c2c(C)nc3ccccn23)c(C#Cc2nn(C)c3ncccc23)n1 (stereo not drawn) [Example 58]  cIAP1 BIR3 (Homo sapiens, UniProt Q13490)               IC50          5
11  CCOc1ccc(-c2ccc(NC(=O)C(C)NC)nc2C#Cc2ccccc2)cn1 (stereo not drawn) [Example 125]  cIAP1 BIR3 (Homo sapiens, UniProt Q13490)               IC50        131
12  CC(N)C(=O)Nc1cccc(C#Cc2ccoc2)n1 (stereo not drawn) [Example 240]  cIAP1 BIR3 (Homo sapiens, UniProt Q13490)               IC50       1340
13  CC(N)C(=O)Nc1cccc(C#Cc2cccnc2)n1 (stereo not drawn) [Example 215]  cIAP1 BIR3 (Homo sapiens, UniProt Q13490)               IC50        985
14  CNC(C)C(=O)Nc1ccc(-c2c(C)nc3ccccn23)c(C#Cc2ccc3c(ccc(=O)n3C)c2)n1 (stereo not drawn) [Example 26]  cIAP1 BIR3 (Homo sapiens, UniProt Q13490)               IC50          1
15  CNC(C)C(=O)Nc1ccc(-c2cc(C(=O)OC)cc(C(=O)OC)c2)c(C#Cc2ccccc2)n1 (stereo not drawn) [Example 176]  cIAP1 BIR3 (Homo sapiens, UniProt Q13490)               IC50         23
16  CNC(C)C(=O)Nc1ccc(-c2ccc(OC)nc2OC)c(C#Cc2ccccc2)n1 (stereo not drawn) [Example 126]  cIAP1 BIR3 (Homo sapiens, UniProt Q13490)               IC50        166
17  CC(N)C(=O)Nc1cc2ccccc2c(C#Cc2cccs2)n1 (stereo not drawn) [Example 208]  cIAP1 BIR3 (Homo sapiens, UniProt Q13490)               IC50        255
18  CNC(C)C(=O)Nc1ccc(-c2c(C)nc3ccccn23)c(C#Cc2ccccc2)n1 (stereo not drawn) [Example 174]  cIAP1 BIR3 (Homo sapiens, UniProt Q13490)               IC50          1
19  CC(N)C(=O)Nc1cc2ccccc2c(C#Cc2cscn2)n1 (stereo not drawn) [Example 226]  cIAP1 BIR3 (Homo sapiens, UniProt Q13490)               IC50        332
20  CNC(C)C(=O)Nc1ccc(-c2c(-c3ccncc3)nc3cc(C)ccn23)c(C#Cc2ccccc2)n1 (stereo not drawn) [Example 185]  cIAP1 BIR3 (Homo sapiens, UniProt Q13490)               IC50          1
